- Test system: Hepatitis C virus
- Protocol Description: Antiviral activity against HCV assessed as reduction in viral replication by measuring parent nucleoside compound
- Type: functional, organism-based, Hepacivirus hominis
Would you mind telling me the reported EC50 of each entry?
Report the figure in µM without appending any unit label.

What the record says about CNc1nc(N)nc2c1ncn2[C@@H]1O[C@H](COP(=O)(N[C@@H](C)C(=O)OC(C)C)Oc2ccccc2)[C@@H](O)[C@@]1(C)F (some centres undefined) [BEMNIFOSBUVIR] : EC50 is 69

What the record says about COc1nc(N)nc2c1ncn2[C@@H]1O[C@H](COP(=O)(N[C@@H](C)C(=O)OCC(C)(C)C)Oc2cccc3ccccc23)[C@@H](O)[C@@]1(C)O (some centres undefined) [BMS-986094] : EC50 is 3.5

====

- Protocol Description: AUC (0 to infinity) in Beagle dog at 0.5 mg/kg, iv measured for 0.08 to 24 hrs post-dose
- Assay type: ADME, organism-based, Canis lupus familiaris
- Design: dose 0.5 mg/kg, time upper 24 hrs, time lower 0.08 hrs, route iv
- Condition Set: in vivo
Assay Readout: AUC(0-inf) (µM·h)
Report the figure in µM·h without appending any unit label.

What the record says about "CCOC(=O)[C@H](C)N[P@@]1(=O)OC[C@H]2O[C@@H](n3cnc4c(OCC)nc(N)nc43)[C@](C)(F)[C@@H]2O1" : AUC(0-inf) is 0.61

====

- Protocol Description: AUC (0 to infinity) in cynomolgus monkey at 5 mg/kg, po measured for 0.25 to 4 hrs post-administration
- Assay type: ADME, organism-based, Macaca fascicularis
- Design: time upper 4 hrs, dose 5 mg/kg, time lower 0.25 hrs, route po
- Condition Set: in vivo
Assay Readout: AUC(0-inf) (µM·h)
Report the figure in µM·h without appending any unit label.

What the record says about "CC(C)OC(=O)[C@H](C)N[P@](=O)(OC[C@H]1O[C@@H](n2ccc(=O)[nH]c2=O)[C@@](C)(F)[C@@H]1O)Oc1ccccc1" : AUC(0-inf) is 0.16

====

Would you mind telling me the reported EC50 of each entry?
- Test system: Measles morbillivirus
- Protocol Description: Antiviral activity against Measles virus infected in HMVEC cells assessed as reduction in viral replication
- Assay type: functional, organism-based
Report the figure in nM without appending any unit label.

Hey, Measles morbillivirus data for N#C[C@@]1(c2ccc3c(N)ncnn23)O[C@H](CO)[C@@H](O)[C@H]1O [GS-441524] : EC50 came out at 770

Hey, Measles morbillivirus data for "CCC(CC)OC(=O)[C@H](C)N[P@](=O)(OC[C@H]1O[C@@](C#N)(c2ccc3c(N)ncnn23)[C@H](O)[C@@H]1O)Oc1ccccc1" : EC50 came out at 60

====

Would you mind telling me the reported AUC(0-inf) of each entry?
- Protocol Description: AUC (0 to infinity) in cynomolgus monkey at 30 mg/kg, po
- Assay type: ADME, organism-based, Macaca fascicularis
- Design: time infinity, dose 30 mg/kg, route po
- Condition Set: in vivo
Report the figure in µM·h without appending any unit label.

What the record says about CNc1nc(N)nc2c1ncn2[C@@H]1O[C@H](CO[P@@](=O)(N[C@@H](C)C(=O)OC(C)C)Oc2ccccc2)[C@@H](O)[C@@]1(C)F [BEMNIFOSBUVIR] : AUC(0-inf) is 0.44

What the record says about COc1nc(N)nc2c1ncn2[C@@H]1O[C@H](COP(=O)(N[C@@H](C)C(=O)OCC(C)(C)C)Oc2cccc3ccccc23)[C@@H](O)[C@@]1(C)O (some centres not stated) [BMS-986094] : AUC(0-inf) is 0.026

====

- System: Nipah virus
- Protocol Description: Antiviral activity against Nipah M1999 infected in human HeLa cells assessed as reduction in viral replication incubated for 48 to 144 hrs by reporter virus assay
- Assay type: functional, organism-based
- Condition Set: Henipavirus nipahense
Assay Readout: EC50 (nM)
Report the figure in nM without appending any unit label.

What the record says about "CCC(CC)OC(=O)[C@H](C)N[P@](=O)(OC[C@H]1O[C@@](C#N)(c2ccc3c(N)ncnn23)[C@H](O)[C@@H]1O)Oc1ccccc1" : EC50 is 66

What the record says about "N#C[C@@]1(c2ccc3c(N)ncnn23)O[C@H](CO)[C@@H](O)[C@H]1O" : EC50 is 2120

====

- Protocol Description: Volume of distribution at steady state in ferret at 10 mg/kg, iv
- Assay type: ADME, organism-based, Mustela putorius furo
- Condition Set: in vivo, read-out: Vdss
Assay Readout: Vd (L/kg)
Report the figure in L/kg without appending any unit label.

What the record says about "CCC(CC)OC(=O)[C@H](C)N[P@](=O)(OC[C@H]1O[C@@](C#N)(c2ccc3c(N)ncnn23)[C@H](O)[C@@H]1O)Oc1ccccc1" : Vd is 0.34

====

- Test system: Middle East respiratory syndrome-related coronavirus
- Protocol Description: Antiviral activity against MERS-CoV infected in HAE cells assessed as reduction in viral replication at MOI of 0.5 incubated for 3 hrs followed by virus removal measured after 48 hrs by Hoechst 33258 staining based assay
- Type: functional, organism-based
Would you mind telling me the reported pEC50 of each entry?
Hey, just a heads up that pEC50 is the negative log base 10 of the concentration in molar.

What the record says about "CCC(CC)OC(=O)[C@H](C)N[P@](=O)(OC[C@H]1O[C@@](C#N)(c2ccc3c(N)ncnn23)[C@H](O)[C@@H]1O)Oc1ccccc1" : pEC50 is 7.13

What the record says about N#C[C@@]1(c2ccc3c(N)ncnn23)O[C@H](CO)[C@@H](O)[C@H]1O [GS-441524] : pEC50 is 6.07

Origin of the recorded values: ChEMBL document CHEMBL5107958
